biological target: Pan-species-specific antigen Plasmodium Lactate DeHydrogenase (Pan-PLDH) protein; assay: indirect ELISA, recombinant MA protein coated 1 ug/ml, antibody 200 ng/ml
assay-endpoint: OD value at 450 nm (refer to 630 nm)
Dear colleague, please send the value followed by its unit.

Field request: OD value at 450 nm (refer to 630 nm) | item: Mutation 4 (antibody, mouse IgG2b, kappa, V domains shown) VH: QVQLQQPGAELVRPGASVKLSCKASGSSFTNYFMNWVKQRPGQGLEWIGMIHPSESETRINQKFKDKATLTVDKSSSTAYMQLSSLTAEDSAVYYCAKSGDFYTSYWDYWGQGTTLTVSS VL: DIQLTQSPASLSASVGETVTITCRGSGNLHNYIAWYQQKQGKSPQLLVYNARTIADGVPSRFSGSGSGTQYSLKINSLQPEDFGSYYCQSFWSTYTFGGGTKLEIKR
2.03 OD

Fill in the blank: the reported OD value at 450 nm (refer to 630 nm) of Mutation 1 (antibody, mouse IgG2b, kappa, V domains shown) VH: QVQLQQPGAELVRPGASVKLSCKASGSSFTNYWMNWVKQRPGQGLEWIGMIHPSESETRINQKFKDKATLTVDKSSSTAYMQLSSLTAEDSAVYYCAKSGDFYTSYFDYWGQGTTLTVSS VL: DIQLTQSPASLSASVGETVTITCRGSGNLHNYLAWYQQKQGKSPQLLVYNARTIADGVPSRFSGSGSGTQYSLKINSLQPEDFGSYYCQSFWSTYTFGGGTKLEIKR is ____.
2.19 OD

Recorded OD value at 450 nm (refer to 630 nm) for Mutation 2 (antibody, mouse IgG2b, kappa, V domains shown) VH: QVQLQQPGAELVRPGASVKLSCKASGSSFTNYFMNWVKQRPGQGLEWIGMIHPSESETRINQKFKDKATLTVDKSSSTAYMQLSSLTAEDSAVYYCAKSGDFYTSYFDYWGQGTTLTVSS VL: DIQLTQSPASLSASVGETVTITCRGSGNLHNYLAWYQQKQGKSPQLLVYNARTIADGVPSRFSGSGSGTQYSLKINSLQPEDFGSYYCQSFWSSYTFGGGTKLEIKR , please?
2.14 OD

Suppose we examine the binder Mutation 3 (antibody, mouse IgG2b, kappa, V domains shown) VH: QVQLQQPGAELVRPGASVKLSCKASGSSFTNYWMNWVKQRPGQGLEWIGMINPSESETRINQKFKDKATLTVDKSSSTAYMQLSSLTAEDSAVYYCAKSGDFYTSYFDYWGQGTTLTVSS VL: DIQLTQSPASLSASVGETVTITCRGSGNLHNYIAWYQQKQGKSPQLLVYNARTIADGVPSRFSGSGSGTQYSLKINSLQPEDFGSYYCQSFWSTYTFGGGTKLEIKR ; what OD value at 450 nm (refer to 630 nm) value has been reported?
2.14 OD

// provenance: patent US20210395394A1
